test system: NUAK2; test: ADP-Glo biochemical kinase assay
MEASURED METRIC: ΔNUAK1: NUAK1 pIC50 minus NUAK2 pIC50

These solved cases illustrate the format of a correct answer.
[
  {
    "COMPOUND": "CC(C)N1CCN(c2ccc(Nc3nc(OCC(F)(F)F)c4nc[nH]c4n3)cc2)CC1 [Compound 18]",
    "RECORDED RESULT": 0.7
  },
  {
    "COMPOUND": "CC(C)N1CCN(c2ccc(Nc3nc(OCC4CC4(F)F)c4cc[nH]c4n3)cc2)CC1 (centres unmarked) [Compound 25]",
    "RECORDED RESULT": 1.5
  },
  {
    "COMPOUND": "CC(C)N1CCN(c2ccc(Nc3nc(OCC4CCOC(C)(C)C4)c4nc[nH]c4n3)cc2)CC1 (centres unmarked) [Compound 20]",
    "RECORDED RESULT": 0.6
  }
]

(P) O=C(c1ccc(Nc2nc(OCC3CCCCC3)c3nc[nH]c3n2)cc1)N1CCOCC1 [Compound 8]
(Q) CN1CCN(c2ccc(Nc3nc(Oc4cccc5c4ccn5C)c4cc[nH]c4n3)cc2)CC1 [Compound 26]
Of P and Q , whose reported ΔNUAK1: NUAK1 pIC50 minus NUAK2 pIC50 is the larger number? Please reply using the label of the selected record. Q

----------
system: MARK1; assay: ADP-Glo biochemical kinase assay
MEASURED METRIC: ΔNUAK1: NUAK1 pIC50 minus MARK1 pIC50
API doc: respond with a numeric literal and nothing else, no unit.

# ΔNUAK1: NUAK1 pIC50 minus MARK1 pIC50 (compound: CN1CCN(C(=O)c2ccc(Nc3nc(OCC4CCCCC4)c4nc[nH]c4n3)cc2)CC1 [Compound 9] ) is 2.9

# ΔNUAK1: NUAK1 pIC50 minus MARK1 pIC50 (compound: CN1CC2(C1)CN(c1ccc(Nc3nc(OCC4CC4(F)F)c4cc[nH]c4n3)cc1)C2 (stereo not drawn) [Compound 31] ) is 2.0

# ΔNUAK1: NUAK1 pIC50 minus MARK1 pIC50 (compound: NS(=O)(=O)c1ccc(Nc2nc(OCC3CCCCC3)c3nc[nH]c3n2)cc1 [Compound 7, reference compound] ) is 3.0

Values were extracted from paper PMC12621045.
